# assayInfo: in vivo
# assaySetup: male, Swiss, mouse, po, 300 mg/kg, pH 4

# compound, AUC(0-t) / ng·h/mL
measured = [
    ("CON=C1CC(C)OC(OC2C(C)CC(C)(OC(=O)NC(C)(C)CNS(=O)(=O)c3ccccc3)C(=O)C(C)C(OC(=O)CC(C)C)C(C)C(C(C)COC3OC(C)C(O)C(OC)C3OC)OC(=O)C(C)C(OC3CC(C)N(C)CC(C)O3)C2C)C1O (stereo not shown)", 21000),
]

====

# Test system: Mtb methylated ribosome
# assayInfo: Mtb in vitro translation assay with methylated (erythromycin-treated) ribosome
# Type: biochemical, Mycobacterium tuberculosis
# assaySetup: read-out: Translation inhibition of Mtb methylated ribosome (IC50 μM)
# IC50 annotations
outcomeMeasure: IC50

# compound, recordedMeasurement
records = [
    ("CON=C1C[C@@H](C)O[C@@H](O[C@@H]2[C@@H](C)[C@H](O[C@H]3C[C@@H](C)N(C)C[C@H](C)O3)[C@@H](C)C(=O)O[C@H](C(C)CO[C@@H]3O[C@H](C)[C@@H](O)[C@@H](OC)[C@H]3OC)[C@H](C)[C@@H](OC(=O)CC(C)C)[C@@H](C)C(=O)[C@@](C)(OC(=O)NCc3ccccc3)C[C@@H]2C)[C@@H]1O (stereo partly shown)", "0.054 µM"),
    ("CON=C1CC(C)OC(OC2C(C)CC(C)(OC(=O)NC(C)(C)CNS(=O)(=O)c3ccccc3)C(=O)C(C)C(OC(=O)CC(C)C)C(C)C(C(C)COC3OC(C)C(O)C(OC)C3OC)OC(=O)C(C)C(OC3CC(C)N(C)CC(C)O3)C2C)C1O (stereo not shown)", "0.064 µM"),
    ("COC1C(OCC(C)C2OC(=O)C(C)C(OC3CC(C)(O)C(O)C(C)O3)C(C)C(OC3OC(C)CC(=O)C3O)C(C)CC(C)(O)C(=O)C(C)C(OC(=O)CC(C)C)C2C)OC(C)C(O)C1OC (stereo not shown)", "0.022 µM"),
    ("CO/N=C1\\C[C@@H](C)O[C@@H](O[C@@H]2[C@@H](C)[C@H](O[C@H]3C[C@@](C)(O)[C@@H](O)[C@H](C)O3)[C@@H](C)C(=O)O[C@H]([C@@H](C)CO[C@@H]3O[C@H](C)[C@@H](O)[C@@H](OC)[C@H]3OC)[C@H](C)[C@@H](OC(=O)CC(C)C)[C@@H](C)C(=O)[C@@](C)(OC(=O)NCc3ccccc3)C[C@@H]2C)[C@@H]1O", "0.031 µM"),
]

====

# assayInfo: in vivo
# assaySetup: male, Swiss, mouse, po, 30 mg/kg, AUC in plasma @30 mg/kg, oral 30 mg/kg, plasma

# compound, AUC
data = [
    ("CO/N=C1\\C[C@@H](C)O[C@@H](O[C@@H]2[C@@H](C)[C@H](O[C@H]3C[C@@](C)(O)[C@@H](O)[C@H](C)O3)[C@@H](C)C(=O)O[C@H]([C@@H](C)CO[C@@H]3O[C@H](C)[C@@H](O)[C@@H](OC)[C@H]3OC)[C@H](C)[C@@H](OC(=O)CC(C)C)[C@@H](C)C(=O)[C@@](C)(OC(=O)NCc3ccccc3)C[C@@H]2C)[C@@H]1O [SEQ-416]", "4000 ng·h/mL"),
    ("CON=C1C[C@@H](C)O[C@@H](O[C@@H]2[C@@H](C)[C@H](O[C@H]3C[C@@H](C)N(C)C[C@H](C)O3)[C@@H](C)C(=O)O[C@H](C(C)CO[C@@H]3O[C@H](C)[C@@H](O)[C@@H](OC)[C@H]3OC)[C@H](C)[C@@H](OC(=O)CC(C)C)[C@@H](C)C(=O)[C@@](C)(OC(=O)NCc3ccccc3)C[C@@H]2C)[C@@H]1O (stereo partly drawn) [SEQ-372]", "900 ng·h/mL"),
    ("CON=C1CC(C)OC(OC2C(C)CC(C)(OC(=O)NC(C)(C)CNS(=O)(=O)c3ccccc3)C(=O)C(C)C(OC(=O)CC(C)C)C(C)C(C(C)COC3OC(C)C(O)C(OC)C3OC)OC(=O)C(C)C(OC3CC(C)N(C)CC(C)O3)C2C)C1O (stereo not drawn) [SEQ-9]", "6300 ng·h/mL"),
]

====

# assayInfo: in vivo
# assaySetup: male, Swiss, mouse, po, 100 mg/kg

# compound, AUC(0-t), ng·h/mL
measured = [
    ("CON=C1CC(C)OC(OC2C(C)CC(C)(OC(=O)NC(C)(C)CNS(=O)(=O)c3ccccc3)C(=O)C(C)C(OC(=O)CC(C)C)C(C)C(C(C)COC3OC(C)C(O)C(OC)C3OC)OC(=O)C(C)C(OC3CC(C)N(C)CC(C)O3)C2C)C1O (stereo not shown)", 22000),
]

====

# solubility annotations
# assayInfo: physchem
# Format: physicochemical
# assaySetup: aqueous buffer; PBS pH 7.4; read-out: Solubility: PBS@pH 7.4

# compound, solubility / µg/mL
measured = [
    ("CON=C1C[C@@H](C)O[C@@H](O[C@@H]2[C@@H](C)[C@H](O[C@H]3C[C@@H](C)N(C)C[C@H](C)O3)[C@@H](C)C(=O)O[C@H](C(C)CO[C@@H]3O[C@H](C)[C@@H](O)[C@@H](OC)[C@H]3OC)[C@H](C)[C@@H](OC(=O)CC(C)C)[C@@H](C)C(=O)[C@@](C)(OC(=O)NCc3ccccc3)C[C@@H]2C)[C@@H]1O (stereo partly shown)", 58.8),
    ("CON=C1CC(C)OC(OC2C(C)CC(C)(OC(=O)NC(C)(C)CNS(=O)(=O)c3ccccc3)C(=O)C(C)C(OC(=O)CC(C)C)C(C)C(C(C)COC3OC(C)C(O)C(OC)C3OC)OC(=O)C(C)C(OC3CC(C)N(C)CC(C)O3)C2C)C1O (stereo not shown)", 51),
    ("CO/N=C1\\C[C@@H](C)O[C@@H](O[C@@H]2[C@@H](C)[C@H](O[C@H]3C[C@@](C)(O)[C@@H](O)[C@H](C)O3)[C@@H](C)C(=O)O[C@H]([C@@H](C)CO[C@@H]3O[C@H](C)[C@@H](O)[C@@H](OC)[C@H]3OC)[C@H](C)[C@@H](OC(=O)CC(C)C)[C@@H](C)C(=O)[C@@](C)(OC(=O)NCc3ccccc3)C[C@@H]2C)[C@@H]1O", 22),
    ("COC1C(OCC(C)C2OC(=O)C(C)C(OC3CC(C)(O)C(O)C(C)O3)C(C)C(OC3OC(C)CC(=O)C3O)C(C)CC(C)(O)C(=O)C(C)C(OC(=O)CC(C)C)C2C)OC(C)C(O)C1OC (stereo not shown)", 522),
]

====

# assayInfo: physchem
# Format: physicochemical
# assaySetup: MCT pH 7.4; read-out: Solubility: MCT@pH 7.4

# molecule, solubility
measured = [
    ("CON=C1CC(C)OC(OC2C(C)CC(C)(OC(=O)NC(C)(C)CNS(=O)(=O)c3ccccc3)C(=O)C(C)C(OC(=O)CC(C)C)C(C)C(C(C)COC3OC(C)C(O)C(OC)C3OC)OC(=O)C(C)C(OC3CC(C)N(C)CC(C)O3)C2C)C1O (stereo not drawn) [SEQ-9]", "0.53 mg/mL"),
    ("CO/N=C1\\C[C@@H](C)O[C@@H](O[C@@H]2[C@@H](C)[C@H](O[C@H]3C[C@@](C)(O)[C@@H](O)[C@H](C)O3)[C@@H](C)C(=O)O[C@H]([C@@H](C)CO[C@@H]3O[C@H](C)[C@@H](O)[C@@H](OC)[C@H]3OC)[C@H](C)[C@@H](OC(=O)CC(C)C)[C@@H](C)C(=O)[C@@](C)(OC(=O)NCc3ccccc3)C[C@@H]2C)[C@@H]1O [SEQ-416]", "0.599 mg/mL"),
    ("CON=C1C[C@@H](C)O[C@@H](O[C@@H]2[C@@H](C)[C@H](O[C@H]3C[C@@H](C)N(C)C[C@H](C)O3)[C@@H](C)C(=O)O[C@H](C(C)CO[C@@H]3O[C@H](C)[C@@H](O)[C@@H](OC)[C@H]3OC)[C@H](C)[C@@H](OC(=O)CC(C)C)[C@@H](C)C(=O)[C@@](C)(OC(=O)NCc3ccccc3)C[C@@H]2C)[C@@H]1O (stereo partly drawn) [SEQ-372]", "1.42 mg/mL"),
]

====

# assayInfo: in vivo
# assaySetup: male, Swiss, mouse, po, 10 mg/kg, pH 4, Lung t1/2, mouse po 10 mg/kg, PEG200/Tween80/Citrate Buffer 100mM pH4 (70/5/25)

# molecule, unitString, half-life
records = [
    ("CON=C1CC(C)OC(OC2C(C)CC(C)(OC(=O)NC(C)(C)CNS(=O)(=O)c3ccccc3)C(=O)C(C)C(OC(=O)CC(C)C)C(C)C(C(C)COC3OC(C)C(O)C(OC)C3OC)OC(=O)C(C)C(OC3CC(C)N(C)CC(C)O3)C2C)C1O (stereo not shown) [SEQ-9]", "h", 4.5),
]
